B1: ATGL (PNPLA2, patatin-like phospholipase domain-containing protein 2), human, full length / perilipin-5, mouse (mPlin5) (parent)
chain 1: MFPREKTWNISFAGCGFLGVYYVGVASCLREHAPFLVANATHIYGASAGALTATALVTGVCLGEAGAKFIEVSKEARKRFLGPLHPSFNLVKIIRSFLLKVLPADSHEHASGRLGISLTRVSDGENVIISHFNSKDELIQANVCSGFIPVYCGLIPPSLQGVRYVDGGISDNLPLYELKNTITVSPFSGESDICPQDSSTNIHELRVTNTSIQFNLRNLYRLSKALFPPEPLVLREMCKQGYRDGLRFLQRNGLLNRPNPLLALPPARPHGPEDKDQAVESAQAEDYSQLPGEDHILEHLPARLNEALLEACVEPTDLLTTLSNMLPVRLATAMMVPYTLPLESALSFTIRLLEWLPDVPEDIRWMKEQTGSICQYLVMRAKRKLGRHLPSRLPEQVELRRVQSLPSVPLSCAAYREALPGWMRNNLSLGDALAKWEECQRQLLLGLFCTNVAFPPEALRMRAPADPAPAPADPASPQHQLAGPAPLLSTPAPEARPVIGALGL
chain 2: MDQRGEDTTLAPHSRMSGDQTAQDPGSSLGELDQQNVVNRVVALPLVKATCTAVSSAYNSAKDRHPLLGSACRLAEHCVCSVTTCALDHAQPLLEHLQPQLATVNDLACRGLDKLEEKLPFLQQPSDMVVTSAKDTVAKSVTGMVDLAQRGRRWSGELRRSMSQAMDMVLGKSEKLVDRFLPMTEAELAVLAAEAEGPEVGTVEEQRQQQGYFVRLGSLSARLRHLAYEHSLGKLRQSKHRTQEMLAQLQETLELIQHMQRGASPSPTFHPPKTQELWGSWSPCLENGRSHSEVELETLALSRSLTLELQNAVDALAGCVRGLPPSAQAKVAEVQRSVDALQATFADAHCLGDVAPTALAEGRGSVARAHACVDEFLDLVLRAMPLPWLVGPFAPILVEQSEPLINLATCVDEVVGDPDPRWAHMDWPAQKRAWEAESADPGGQEAEPPRGQGKHTMMPELDF

Variants of: B1
Assay: LUMIER: Protein A-ATGL variant and firefly luciferase-partner co-expressed in HEK293T, lysates immunoprecipitated on IgG-coated plates, co-precipitated partner measured as luciferase luminescence
Conditions: with perilipin-5, mouse (mPlin5), transient co-transfection, IgG-coated LUMITRAC plates, 2 h at 4 °C, three PBS washes, Bright-Glo luciferase reagent, triplicates per assay, two …, parent: 0.15, not graded, scale: log2 fold change of co-immunoprecipitated luminescence relative to wild-type ATGL within each experiment
experimental.endpoint: screen value

Field: example entries. Status: answers known.
{"columns": ["mutant.id", "number"],
 "data": [
  ["chain 1 Q396A", -0.512],
  ["chain 1 F35E", -0.313],
  ["chain 1 L62K", -0.0604],
  ["chain 1 F35A", -0.563],
  ["chain 1 H109E", 0.319],
  ["chain 1 G66A", -0.448]
]}

I: chain 1 R113L
II: chain 1 L261E
Q: Compare I and II and name the one whose reported screen value is smaller. Refer to your chosen item by its label in the answer.
Ans: II
(II: -0.706, I: -0.305)
